Attribution: patent US7511145B2

target: HCV-NS5b (Hepatitis C virus genotype 1b); construct: (His)6 (C); made in house; host or cells: XL-1 cells (E. coli), IPTG-inducible plasmid, nickel-NTA purification; assay: HCV-NS5b enzyme assay (incorporation of radiolabeled UTP); type: biochemical; settings: read-out: % inh@100, enzyme inhibition at compound concentration of 100 uM
Listed here are molecules together with their documented inhibition at 100 µM.
recorded_metric: inhibition at 100 µM (%)

{"columns": ["smiles_entry", "number"],
 "data": [
  ["Cc1cc(-c2ccc3cc(-c4nc5cc(C(=O)O)ccc5n4C4CCCCC4)ccc3n2)c(-c2ccccc2)s1", 98.1],
  ["NC(=O)CC[C@H](NC(=O)c1ccc2c(c1)nc(-c1ccc3nc(-c4ccccc4)cnc3c1)n2C1CCCCC1)C(=O)O", 98.1],
  ["O=C(O)c1ccc2c(c1)nc(-c1ccc3nc(-c4ccccc4)c(-c4ccccc4)cc3c1)n2C1CCCCC1", 99.9],
  ["O=C(O)c1ccc2c(c1)nc(-c1ccc3nc(-c4cc5ccccc5o4)ccc3c1)n2C1CCCCC1", 100]
]}

---

biological target: HCV-NS5b (Hepatitis C virus genotype 1b, UniProt Q9WMX2); construct: (His)6 (C); made in house; host or cells: XL-1 cells (E. coli), IPTG-inducible plasmid, nickel-NTA purification; assay: HCV-NS5b enzyme assay (incorporation of radiolabeled UTP); assay type: biochemical; details: read-out: % inh@100, enzyme inhibition at compound concentration of 100 uM
Consider the following compounds and their measured inhibition at 100 µM readings.
recorded_metric: inhibition at 100 µM (%)

{"columns": ["compound", "number"],
 "data": [
  ["O=C(O)c1ccc2c(c1)nc(-c1ccc3nc(-c4ccccc4-c4ccc(Cl)cc4)ccc3c1)n2C1CCCCC1 [Compound 387]", 98.7],
  ["Cc1oc(-c2ccc(Cl)cc2)cc1-c1ccc2cc(-c3nc4cc(C(=O)O)ccc4n3C3CCCCC3)ccc2n1 [Compound 505]", 102],
  ["O=C(O)c1ccc2c(c1)nc(-c1ccc3nc(-c4ccccc4)c(-c4ccccc4)nc3c1)n2C1CCCCC1 [Compound 406]", 98.1],
  ["Cc1nc(C)c(-c2ccc3cc(-c4nc5cc(C(=O)O)ccc5n4C4CCCCC4)ccc3n2)s1 [Compound 426]", 102]
]}

---

Listed molecules paired with reported inhibition at 100 µM
biological target: HCV-NS5b (Hepatitis C virus genotype 1b); construct: (His)6 (C); made in house; host or cells: XL-1 cells (E. coli), IPTG-inducible plasmid, nickel-NTA purification; assay: HCV-NS5b enzyme assay (incorporation of radiolabeled UTP); type: biochemical; details: read-out: % inh@100, enzyme inhibition at compound concentration of 100 uM

{"columns": ["molecule", "unit_symbol", "inhibition at 100 µM"],
 "data": [
  ["Cc1ccc(-c2nc3ccc(-c4nc5cc(C(=O)O)ccc5n4C4CCCCC4)cc3nc2-c2ccc(C)cc2)cc1 [Compound 389]", "%", 99.5],
  ["CCOc1ccc([N+](=O)[O-])cc1-c1ccc2cc(-c3nc4cc(C(=O)O)ccc4n3C3CCCCC3)ccc2n1 [Compound 404]", "%", 101],
  ["COc1ccc(-c2nc3ccc(-c4nc5cc(C(=O)O)ccc5n4C4CCCCC4)cc3nc2-c2ccc(OC)cc2)cc1 [Compound 441]", "%", 98.8],
  ["COCCOc1cccc(-c2ccc3cc(-c4nc5cc(C(=O)O)ccc5n4C4CCCCC4)ccc3n2)c1 [Compound 445]", "%", 99.6],
  ["O=C(O)c1ccc2c(c1)nc(-c1ccc3nc(-c4cc[nH]c4)ccc3c1)n2C1CCCCC1 [Compound 432]", "%", 96.4],
  ["N=C(N)NCCC[C@H](NC(=O)c1ccc2c(c1)nc(-c1ccc3nc(-c4ccccc4)cnc3c1)n2C1CCCCC1)C(=O)O [Compound 523]", "%", 95],
  ["O=C(O)c1ccc2c(c1)nc(-c1ccc3nc(-c4ccccc4-c4ccccc4)ccc3c1)n2C1CCCCC1 [Compound 395]", "%", 101],
  ["Cc1oc2ccc(OCc3ccccc3)cc2c1-c1ccc2cc(-c3nc4cc(C(=O)O)ccc4n3C3CCCCC3)ccc2n1 [Compound 448]", "%", 96],
  ["CN(C)c1ccc(-c2nc3ccc(-c4nc5cc(C(=O)O)ccc5n4C4CCCCC4)cc3nc2-c2ccc(N(C)C)cc2)cc1 [Compound 458]", "%", 104],
  ["O=C(O)c1ccc2c(c1)nc(-c1ccc3nc(-c4c(O)ccc5ccccc45)ccc3c1)n2C1CCCCC1 [Compound 460]", "%", 102],
  ["O=C(O)c1ccc2c(c1)nc(-c1ccc3nc(-c4ccccc4Br)c(-c4ccccc4)cc3c1)n2C1CCCCC1 [Compound 424]", "%", 99.1],
  ["O=C1COc2ccc(-c3ccc4cc(-c5nc6cc(C(=O)O)ccc6n5C5CCCCC5)ccc4n3)cc2N1 [Compound 465]", "%", 101],
  ["O=C(O)c1ccc2c(c1)nc(-c1ccc3nc(-c4cnccn4)ccc3c1)n2C1CCCCC1 [Compound 442]", "%", 98.2],
  ["COc1ccc(-c2ccc(C(=O)O)cc2)c(-c2ccc3cc(-c4nc5cc(C(=O)O)ccc5n4C4CCCCC4)ccc3n2)c1 [Compound 421]", "%", 100]
]}

---

target: HCV-NS5b (Hepatitis C virus genotype 1b); construct: (His)6 (C); made in house; host or cells: XL-1 cells (E. coli), IPTG-inducible plasmid, nickel-NTA purification; assay: HCV-NS5b enzyme assay (incorporation of radiolabeled UTP); assay type: biochemical; settings: read-out: % inh@100, enzyme inhibition at compound concentration of 100 uM

{"columns": ["compound", "inhibition at 100 µM / %"],
 "data": [
  ["O=C(O)c1ccc2c(c1)nc(-c1cc3ccc(-c4ccccc4-c4ccc(Cl)cc4)nc3cc1F)n2C1CCCCC1 [Compound 408]", 98.9],
  ["COc1ccc(-c2ccc(Cl)c(Cl)c2)c(-c2ccc3cc(-c4nc5cc(C(=O)O)ccc5n4C4CCCCC4)ccc3n2)c1 [Compound 403]", 99.9],
  ["COc1cccc(O)c1-c1ccc2cc(-c3nc4cc(C(=O)O)ccc4n3C3CCCCC3)ccc2n1 [Compound 434]", 102],
  ["CC1(C)C(CC(=O)O)CC1c1ccc2cc(-c3nc4cc(C(=O)O)ccc4n3C3CCCCC3)ccc2n1 (stereo not shown) [Compound 502]", 100],
  ["Cc1ccc2cc(-c3nc4cc(C(=O)N[C@@H](Cc5c[nH]c6ccc(O)cc56)C(=O)O)ccc4n3C3CCCCC3)ccc2n1 [Compound 230]", 98.2],
  ["O=C(O)c1ccc2c(c1)nc(-c1ccc3nc(CCCO)ccc3c1)n2C1CCCCC1 [Compound 392]", 93.5],
  ["O=C(O)c1ccc2c(c1)nc(-c1ccc3nc(C(c4ccccc4)c4ccccc4)ccc3c1)n2C1CCCCC1 [Compound 457]", 98.3]
]}

---

Recorded inhibition at 33 µM for the following compounds
molecular target: HCV-NS5b (Hepatitis C virus genotype 1b); construct: (His)6 (C); made in house; host or cells: XL-1 cells (E. coli), IPTG-inducible plasmid, nickel-NTA purification; test: HCV-NS5b enzyme assay (incorporation of radiolabeled UTP); type: biochemical; conditions: enzyme inhibition at compound concentration of 33 uM

{"columns": ["compound", "unit_symbol", "inhibition at 33 µM"],
 "data": [
  ["O=C(O)c1ccc2c(c1)nc(-c1ccc3nc(C(c4ccccc4)c4ccccc4)ccc3c1)n2C1CCCCC1", "%", 98.2],
  ["O=C(O)c1ccc2c(c1)nc(-c1ccc3nc(-c4ccnc5ccccc45)ccc3c1)n2C1CCCCC1", "%", 102],
  ["COc1ccc(-c2ccc(Cl)cc2)c(-c2ccc3cc(-c4nc5cc(C(=O)O)ccc5n4CC(C)C)ccc3n2)c1", "%", 98.2],
  ["CC(C)(C)OC(=O)NCCNc1cc(-c2ccccc2)nc2ccc(-c3nc4cc(C(=O)O)ccc4n3C3CCCCC3)cc12", "%", 95.6],
  ["Cc1cc(-c2ccccc2-c2ccc(Cl)cc2)nc2ccc(-c3nc4cc(C(=O)O)ccc4n3C3CCCCC3)cc12", "%", 98.6],
  ["COc1ccc(-c2ccc(Cl)cc2)c(-c2ccc3cc(-c4nc5cc(C(=O)O)cnc5n4C4CCCCC4)ccc3n2)c1", "%", 100],
  ["CCOC(=O)c1cnc2c(c1)nc(-c1ccc3nc(-c4cc(O)ccc4-c4ccc(Cl)cc4)ccc3c1)n2C1CCCCC1", "%", 56.6],
  ["O=C(O)c1ccc2c(c1)nc(-c1ccc3nc(-c4ccccc4)cc(NCCCn4ccnc4)c3c1)n2C1CCCCC1", "%", 76.3],
  ["O=C(O)c1ccc2c(c1)nc(-c1ccc3nc(-c4cc(OCC(=O)N5CCCC5)ccc4-c4ccc(Cl)cc4)ccc3c1)n2C1CCCCC1", "%", 97.4],
  ["O=C(N[C@@H](CC1CCCCC1)C(=O)O)c1ccc2c(c1)nc(-c1ccc3nc(-c4ccccc4)cnc3c1)n2C1CCCCC1", "%", 97.4],
  ["O=C(O)c1ccc2c(c1)nc(-c1ccc3nc(-c4cccc(O)c4)ccc3c1)n2C1CCCCC1", "%", 97],
  ["COc1ccc(-c2ccc(Cl)cc2)c(-c2ccc3cc(-c4nc5cc(C(=O)O)ccc5n4C4CC5CCC4C5)ccc3n2)c1 (centres unmarked)", "%", 101],
  ["CCOc1ccc(-c2ccc(OC)cc2-c2ccc3cc(-c4nc5cc(C(=O)O)ccc5n4C4CCCCC4)ccc3n2)cc1", "%", 100],
  ["O=C(N[C@@H](CO)C(=O)O)c1ccc2c(c1)nc(-c1ccc3nc(-c4ccccc4)ccc3c1)n2C1CCCCC1", "%", 67]
]}
